Biological target: recombinant human LTA4 hydrolase (rhLTA4H) (Homo sapiens, UniProt P09960)
Construct: made in house; host or cells: Spodoptera frugiperda (Sf-9) cells, baculovirus (pFastBac1)
Sequence (P09960 whole entry): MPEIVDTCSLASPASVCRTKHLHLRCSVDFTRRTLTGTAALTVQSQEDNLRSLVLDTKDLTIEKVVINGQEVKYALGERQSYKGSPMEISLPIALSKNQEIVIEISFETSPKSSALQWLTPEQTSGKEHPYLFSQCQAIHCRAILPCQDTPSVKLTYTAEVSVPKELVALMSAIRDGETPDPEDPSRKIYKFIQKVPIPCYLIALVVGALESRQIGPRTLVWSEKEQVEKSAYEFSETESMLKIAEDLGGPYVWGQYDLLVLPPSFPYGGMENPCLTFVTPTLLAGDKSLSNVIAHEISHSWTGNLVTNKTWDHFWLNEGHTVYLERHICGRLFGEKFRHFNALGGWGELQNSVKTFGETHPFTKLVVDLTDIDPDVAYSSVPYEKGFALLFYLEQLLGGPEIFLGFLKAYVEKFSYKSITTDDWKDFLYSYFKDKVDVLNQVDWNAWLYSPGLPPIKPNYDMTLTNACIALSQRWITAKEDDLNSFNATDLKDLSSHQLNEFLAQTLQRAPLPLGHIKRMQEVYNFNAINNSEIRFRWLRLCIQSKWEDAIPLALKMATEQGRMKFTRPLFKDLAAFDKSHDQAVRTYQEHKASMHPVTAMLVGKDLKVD
Assay: Recombinant human LTA4 hydrolase assay for LTA4 hydrolase inhibitor activity
Type: biochemical
Conditions: rhLTA4H, LTB4 by immunoassay; single determination or average of two or more; mark after value = form tested: ′ free base, ″ hydrochloride, ^ formate; read-out: IC50
Protocol: Assay 1: Recombinant Human LTA4 Hydrolase Assay for LTA4 Hydrolase Inhibitor Activity Compounds of the present invention were tested for LTA4 hydrolase inhibitor activity against recombinant human LTA4 hydrolase (rhLTA4H). Vectors were prepared and used to express rhLTA4H essentially as follows: LTA4 hydrolase encoding DNA was amplified by polymerase chain reaction (PCR) using a human placental cDNA library as a template. […]
Where a name gives a salt, the structure may show the parent alone.
measuredMetric: log10 of IC50 (log10 of the value in nM)

>  <compound>
CC(=O)N1CC2CN(Cc3cc4cc(Oc5nc6ncccc6s5)ccc4o3)CC2C1 (centres unmarked)

>  <systemTested>
recombinant human LTA4 hydrolase (rhLTA4H) (Homo sapiens, UniProt P09960)

>  <quantitativeReadout>
1.54

$$$$
>  <compound>
CC(=O)N1C[C@@H]2C[C@H]1CN2Cc1c[nH]c2cc(Oc3nc4ncccc4s3)ccc12

>  <systemTested>
recombinant human LTA4 hydrolase (rhLTA4H) (Homo sapiens, UniProt P09960)

>  <quantitativeReadout>
0.30

$$$$
>  <compound>
c1cnc2nc(Oc3ccc4c(CN5CCCC6CCCCC65)coc4c3)sc2c1 (centres unmarked) [Example 267, formate]

>  <systemTested>
recombinant human LTA4 hydrolase (rhLTA4H) (Homo sapiens, UniProt P09960)

>  <quantitativeReadout>
0.95

$$$$
>  <compound>
CC(=O)N1C[C@H]2CC[C@@H](C1)N2Cc1coc2cc(Oc3nc4ncccc4s3)ccc12

>  <systemTested>
recombinant human LTA4 hydrolase (rhLTA4H) (Homo sapiens, UniProt P09960)

>  <quantitativeReadout>
0.30

$$$$
>  <compound>
NC(=O)N[C@H]1C[C@H]2CC[C@@H](C1)N2Cc1coc2cc(Oc3nc4ncccc4s3)ccc12

>  <systemTested>
recombinant human LTA4 hydrolase (rhLTA4H) (Homo sapiens, UniProt P09960)

>  <quantitativeReadout>
0.30

$$$$
>  <compound>
OC1(c2ccccc2)CCN(Cc2coc3cc(Oc4nc5ncccc5s4)ccc23)CC1

>  <systemTested>
recombinant human LTA4 hydrolase (rhLTA4H) (Homo sapiens, UniProt P09960)

>  <quantitativeReadout>
0.30

$$$$
>  <compound>
NC(=O)N[C@@H]1C[C@H]2CC[C@@H](C1)N2Cc1coc2cc(Oc3nc4ncccc4s3)ccc12

>  <systemTested>
recombinant human LTA4 hydrolase (rhLTA4H) (Homo sapiens, UniProt P09960)

>  <quantitativeReadout>
0.00

$$$$
>  <compound>
CN(C)Cc1cc2cc(Oc3nc4ncccc4s3)ccc2o1

>  <systemTested>
recombinant human LTA4 hydrolase (rhLTA4H) (Homo sapiens, UniProt P09960)

>  <quantitativeReadout>
1.62

$$$$
